Reference source for all entries: the supplement of paper PMC12855868

scaled log2 fold change by entry:
B1: library; numbered along this chain (parent)
chain: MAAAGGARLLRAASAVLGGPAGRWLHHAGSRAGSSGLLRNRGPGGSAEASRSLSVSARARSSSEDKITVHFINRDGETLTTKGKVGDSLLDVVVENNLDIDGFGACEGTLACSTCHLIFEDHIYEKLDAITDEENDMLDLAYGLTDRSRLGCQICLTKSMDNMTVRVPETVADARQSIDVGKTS

Variants of: B1
Assay: scaled log2 fold change in cell abundance, elesclomol vs control (0 = silent mean, 1 = nonsense mean) (scaled log2 ratio); higher = higher viability under elesclomol (loss of FDX1 cuproptosis function);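 also: variant abundance is its share of total variant reads in each endpoint sample, from next-generation sequencing of the integrated ORF PCR-amplified out of genomic DNA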
Conditions: with ABC1 FDX1 KO; elesclomol 5 nM; glucose 10 mM; 14 days
Reply with the value as a number alone.

Some entries whose results are on file:
mutationString	scaled log2 fold change
V171L	0.231
A3Y	-0.181
A129F	0.044
A172W	0.0817
M137E	-0.366
D179A	-0.393

Lab note: T81Y gave scaled log2 fold change of -0.015
